B1: TRAF3IP2 (parent)
chain: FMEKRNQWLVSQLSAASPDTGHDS

variants of: B1; experiment: protein stability index of a GFP-peptide fusion (GPS, HEK-293T) (PSI 1-6); higher = more stable; details: c terminus: a fixed tail appended;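 also: lentivirally expressed fusions sorted by FACS into six bins by GFP to DsRed ratio, PSI derived from sequencing read proportions per bin multiplied by bin number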
Answer not met if protein stability index is under 2, and met if it is 2 or more.

Consider the following illustrative entries.
1) D23M ... met
2) Q7P ... not met
3) Q7M ... not met
4) W8S ... met
5) R5L ... not met

Task: Say whether Q7R shows protein stability index of 2 or more.
Output: met

Task: # iterate: H22F
Output: met

Task: # iterate: N6G
Output: met

Task: # iterate: V10E
Output: met

Task: # iterate: S14T
Output: met

Task: # iterate: Q7D
Output: met

Task: # iterate: S24P
Output: met

Task: # iterate: M2I
Output: not met

Task: # iterate: A15N
Output: met

Task: # iterate: F1L
Output: met

Task: # iterate: M2Y
Output: met

Task: # iterate: S24T
Output: met

Task: # iterate: G21P
Output: met
